procedure text: Inhibition of PI3K (unknown origin)
Parameters: species or system Homo sapiens
pKd: −log10 of the molar value.
observation type: pKd

molecule	readout value
CC(C)Oc1ccc(-c2nn([C@@H](C)c3oc4ccc(F)cc4c(=O)c3-c3cccc(F)c3)c3ncnc(N)c23)cc1F [UMBRALISIB]	8.21

###

assayed target: Histone-lysine N-methyltransferase EZH2 (Homo sapiens)
Sequence (Q15910 whole entry): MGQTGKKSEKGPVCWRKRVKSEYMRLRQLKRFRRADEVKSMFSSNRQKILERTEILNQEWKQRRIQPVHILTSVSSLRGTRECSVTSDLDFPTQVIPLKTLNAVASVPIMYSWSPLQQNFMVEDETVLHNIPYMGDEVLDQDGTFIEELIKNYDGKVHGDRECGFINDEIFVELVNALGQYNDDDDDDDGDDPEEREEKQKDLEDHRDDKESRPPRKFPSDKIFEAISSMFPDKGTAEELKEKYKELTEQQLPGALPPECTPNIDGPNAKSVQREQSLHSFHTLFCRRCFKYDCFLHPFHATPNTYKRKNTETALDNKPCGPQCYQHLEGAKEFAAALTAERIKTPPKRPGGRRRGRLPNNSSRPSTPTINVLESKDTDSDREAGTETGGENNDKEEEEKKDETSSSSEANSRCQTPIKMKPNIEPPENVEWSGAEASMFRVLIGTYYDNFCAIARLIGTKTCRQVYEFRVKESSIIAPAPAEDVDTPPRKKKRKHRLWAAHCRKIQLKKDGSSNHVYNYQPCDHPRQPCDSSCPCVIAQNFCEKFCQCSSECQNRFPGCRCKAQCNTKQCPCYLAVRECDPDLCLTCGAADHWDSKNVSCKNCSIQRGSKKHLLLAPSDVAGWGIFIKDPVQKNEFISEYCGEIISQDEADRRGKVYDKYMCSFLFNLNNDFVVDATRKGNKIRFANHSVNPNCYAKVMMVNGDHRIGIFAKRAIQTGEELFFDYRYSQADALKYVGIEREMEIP
procedure text: Inhibition of EZH2 (unknown origin)
observation type: EC50 (µM)

Cc1cc(C)c(CNC(=O)c2cc(C)n(C3CCCCC3)c2C)c(=O)[nH]1 3.4

Data origin: ChEMBL document CHEMBL5230141
